# Study target: T1, SegA (Sulfolobus solfataricus, UniProt Q981B3 1-220)
# T1 sequence: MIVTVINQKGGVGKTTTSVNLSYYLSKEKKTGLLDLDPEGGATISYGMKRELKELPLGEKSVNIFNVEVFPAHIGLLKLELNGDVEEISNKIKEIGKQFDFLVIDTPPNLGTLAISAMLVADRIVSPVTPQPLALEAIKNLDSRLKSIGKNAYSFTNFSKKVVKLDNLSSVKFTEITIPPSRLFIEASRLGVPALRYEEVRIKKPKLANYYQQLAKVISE
# Assay details: fluorescence polarization
Assay endpoint: pKd
Please express pKd as -log10 of the molar concentration.

Per the records, this binder ( 24-bp nsDNA (dsDNA) DNA 1: AGGGTGTTCCACGTGAAACAGGGA DNA 2: TCCCTGTTTCACGTGGAACACCCT ) has pKd equal to 6.62
